- Experimental Target: Kappa-type opioid receptor (Homo sapiens) (UniProt P41145)
- Sequence (P41145 whole entry, looked up): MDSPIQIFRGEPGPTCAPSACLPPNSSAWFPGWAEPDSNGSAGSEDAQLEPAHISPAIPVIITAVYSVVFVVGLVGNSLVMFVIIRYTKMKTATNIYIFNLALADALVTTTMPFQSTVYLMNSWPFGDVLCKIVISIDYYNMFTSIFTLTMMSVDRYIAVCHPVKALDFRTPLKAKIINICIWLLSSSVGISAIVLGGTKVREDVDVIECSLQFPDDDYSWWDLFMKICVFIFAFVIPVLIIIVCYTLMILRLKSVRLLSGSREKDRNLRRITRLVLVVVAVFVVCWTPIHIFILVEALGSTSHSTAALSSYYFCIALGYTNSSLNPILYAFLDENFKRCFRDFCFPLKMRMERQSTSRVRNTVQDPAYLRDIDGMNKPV
- Protocol Notes: KOR agonists, beta-arrestin recruitment, primary screen, cell-based, luminescence, uHTS (AID 1777)
- Measurement Conditions: at 10 µM, stronger effect = higher value
Out of some 280,000 compounds screened, about 50 (0.02%) were called active. The full list was thinned out, with actives kept by preference. Results with a measured potency or affinity are listed apart.
Assay Endpoint: activation (%)
Write it as a number; the unit % goes unstated.

These recorded examples may help you get a feel for the data.
> print(dat)
                                   molecule  assay.endpoint  value
1          CCCn1c(-c2cccs2)nc2nc3ccccc3nc21      activation   13.8
2  O=C(CSc1nnc(CNC(=O)c2c(F)cccc2F)o1)c1ccccc1      activation    4.5
3  O=C(CSc1nc2ccc([N+](=O)[O-])cc2[nH]1)c1ccc2ccccc2c1      activation   -0.1
4           Nc1ccc2nc(SCC(=O)c3ccccc3)sc2c1      activation   -1.7
5         C=CCn1c(-c2cccs2)nc2nc3ccccc3nc21      activation   -4.6

molecule CC(CNC(=O)c1ccc2c(c1)OCO2)c1ccc([N+](=O)[O-])cc1 (stereo unspecified) , activation observed: -4.6

###

- Experimental Target: Kappa-type opioid receptor (Homo sapiens)
- Protocol Notes: KOR agonists, beta-arrestin recruitment, primary screen, cell-based, luminescence, uHTS (AID 1777)
- Measurement Conditions: at 10 µM, stronger effect = higher value
Among all 280,000 compounds or so, about 50 (0.02%) were called active. The sample as a whole holds a higher share of actives than the screen did. Measured potencies and affinities stand elsewhere.
Assay Endpoint: activation (%)
Give just the numeric value; % need not be written.

> print(dat)
                                   molecule  unit  value
1  CN(c1ccccc1C(=O)Nc1ccc(CC#N)cc1)S(=O)(=O)c1ccccc1     %    2.4
2  O=C(CCCCCBr)N1CCC(CC2CC(c3ccc(Cl)cc3)=NO2)(C(=O)NCC2CCCCC2)CC1 (stereo not given)     %   -0.1
3  O=C(c1ccc(=O)[nH]c1)N(Cc1cccs1)C1(C(=O)NC2CCCC2)CCCCC1     %    5.3
4  Cc1cccc(C(=O)Nc2cccc(C(=O)N/N=C/c3ccc4c(c3)OCO4)c2)c1     %   -5.3
5  O=C(c1cnccn1)N(Cc1cccs1)C1(C(=O)NC2CCCC2)CCCCC1     %   30.1

The value of activation measured for the molecule Cn1c(=O)c(=O)n(C)c2cc(S(=O)(=O)N3CCCC3C(=O)NCc3cccs3)ccc21 (stereo not given) turned out to be 1

The reported activation of the molecule "O=C(Cc1cccs1)N(Cc1cccs1)C1(C(=O)NC2CCCC2)CCCCC1" was -2.8

What the record says about "COC(=O)c1ccc(NC(=S)N(Cc2cccnc2)Cc2ccco2)cc1" : activation is -0.8

// sample "O=C(c1cnccn1)N(Cc1cccs1)C1(C(=O)NC2CCCCC2)CCCCC1" , its activation was 64.7

activation measured on "O=C(Cc1ccc([N+](=O)[O-])cc1)N/N=C/c1ccccc1F" = -4.4

###

- Experimental Target: Kappa-type opioid receptor (Homo sapiens)
- Protocol Notes: KOR agonists, beta-arrestin recruitment, primary screen, cell-based, luminescence, uHTS (AID 1777)
- Measurement Conditions: at 10 µM, stronger effect = higher value
Among all 280,000 compounds or so, about 50 (0.02%) were called active. This is one part of a sample in which actives are shown more often than they occur. Measured potencies and affinities stand elsewhere.
Assay Endpoint: activation (%)
Express it in %; write the number only.

Below, 6 compounds whose answers are already recorded.
> print(dat)
                                   compound                       experimental.target  assay.endpoint  unit  value
1  CN(C)/C=C/C(=O)c1ccc(S(=O)(=O)c2ccccc2)cc1  Kappa-type opioid receptor (Homo sapiens)      activation     %     -5
2  O=C(CSc1nc2ccc([N+](=O)[O-])cc2s1)c1ccc2ccccc2c1  Kappa-type opioid receptor (Homo sapiens)      activation     %   57.8
3  Cc1ccc(N2CC(C(=O)N3CCCCCC3)CC2=O)cc1 (stereo not given)  Kappa-type opioid receptor (Homo sapiens)      activation     %    1.5
4  Cn1c(=O)c2c(nc(Oc3ccc4c(c3)OCO4)n2Cc2ccc(Br)cc2)n(C)c1=O  Kappa-type opioid receptor (Homo sapiens)      activation     %    9.8
5  Cn1c(=O)c2c(nc(Oc3ccc4c(c3)OCO4)n2Cc2ccc(F)cc2)n(C)c1=O  Kappa-type opioid receptor (Homo sapiens)      activation     %   67.5
6  CC(=O)N1CCC(C(=O)NC2CC(C)(C)Cc3c2cnn3-c2ccc(F)cc2)CC1 (stereo not given)  Kappa-type opioid receptor (Homo sapiens)      activation     %   -2.2

So for Cc1ccc(C(C)NC(=O)c2cc(C)oc2C)cc1 (stereo not given) , the logged activation turned out to be 8.6

For this compound ( Cc1oc(-c2ccccc2F)nc1CS(=O)CC(=O)NC1CC1 (stereo not given) ), measured activation is 0.9

The compound identified as "Cn1c(=O)c2c(nc(Oc3ccc4c(c3)OCO4)n2Cc2ccc(Cl)cc2)n(C)c1=O" registered its activation at 62.7

Summary for this compound, "CC(C)(C)c1cc(C(=O)NC2CC2)n(Cc2ccc(F)cc2)n1" : activation is -4.7

###

- Experimental Target: Kappa-type opioid receptor (Homo sapiens) (UniProt P41145)
- Protocol Notes: KOR agonists, beta-arrestin recruitment, primary screen, cell-based, luminescence, uHTS (AID 1777)
- Measurement Conditions: at 10 µM, stronger effect = higher value
Among all 280,000 compounds or so, about 50 (0.02%) were called active. This excerpt belongs to a sample that is enriched for actives. Results with a measured potency or affinity are listed apart.
Measured activation of individual entries
Only the number, expressed in %, is required.

activation of "OCCCCNCc1ccc(OCc2ccc(Cl)cc2Cl)cc1" , assay on Kappa-type opioid receptor (Homo sapiens) (UniProt P41145), is 3.1

# activation measured on Kappa-type opioid receptor (Homo sapiens) (UniProt P41145) for item "Cc1ccc(O)c(N=Nc2ccc(S(=O)(=O)N3CCCC3)cc2)c1" = -0.2

Summary: "Cc1nc(C)c(NC(=O)OC(C)C)cc1NC(=O)OC(C)C" , Kappa-type opioid receptor (Homo sapiens) (UniProt P41145), activation = -4.7

// returns activation for "COc1ccc(N=C2SCC(=O)N2CCc2ccc(OC)c(OC)c2)cc1" with Kappa-type opioid receptor (Homo sapiens) (UniProt P41145); value = 23.1

Item: "COc1cc(S(=O)(=O)NC2CCCC2)ccc1-n1cnnn1" | System: Kappa-type opioid receptor (Homo sapiens) (UniProt P41145) | activation: -0.2

Reported Kappa-type opioid receptor (Homo sapiens) (UniProt P41145) activation for item "COc1ccc2nc(NC(=O)CCNS(=O)(=O)c3ccc4c(c3)oc(=O)n4C)sc2c1" was -3.3

Fill in: Kappa-type opioid receptor (Homo sapiens) (UniProt P41145) activation for "CC(Nc1cccnc1)=C(C#N)C#N" = -7.7

The compound CN=C1SC(CC(=O)Nc2ccccc2F)C(=O)N1/N=C/c1ccc(O)c(OC)c1 (stereo not drawn) , when measured on Kappa-type opioid receptor (Homo sapiens) (UniProt P41145), yielded activation of 14.6

###

activation for assorted compounds
- Experimental Target: Kappa-type opioid receptor (Homo sapiens)
- Protocol Notes: KOR agonists, beta-arrestin recruitment, primary screen, cell-based, luminescence, uHTS (AID 1777)
- Measurement Conditions: at 10 µM, stronger effect = higher value
Hit rate of the full screen: of about 280,000 compounds, about 50 (0.02%) were called active. Only a selection was taken, and actives are over-represented in it overall. Results with a measured potency or affinity are listed apart.
Write the number in % without appending the unit.

> print(dat)
                                   compound  assay.endpoint  value
1  Cc1cc(C)n(CCNC(=O)c2cc(COc3ccc4ncccc4c3)on2)n1      activation    0.2
2     Cc1cc(C(=O)CSc2nncn2C)c(C)n1-c1ccccc1      activation   -2.9
3  CC(=O)N(Cc1ccco1)C1(C(=O)NC2CCCC2)CCCCC1      activation     -1

Please find the next compound below.
activation reading for "O=C(c1ccccc1Cl)N(Cc1ccc(Br)cc1)N1C(=O)CCCC1=O" : -1

###

- Experimental Target: Kappa-type opioid receptor (Homo sapiens) (UniProt P41145)
- Protocol Notes: KOR agonists, beta-arrestin recruitment, primary screen, cell-based, luminescence, uHTS (AID 1777)
- Measurement Conditions: at 10 µM
Hit rate of the full screen: of about 280,000 compounds, about 50 (0.02%) were called active. No stated cut-off is given here; in the data, active means activation above about 50% (passing the limit was not always enough); inactive means the rest. This is one part of a sample in which actives are shown more often than they occur. Results with a measured potency or affinity are listed apart.
Classes to choose from: 1.0 (active), 0.0 (inactive)

Previously resolved entries follow.
> print(dat)
                                   molecule                       experimental.target  class.label
1  Cc1ccc(S(=O)(=O)Nc2ccccc2C(=O)Nc2nc(-c3ccc(F)cc3)cs2)cc1  Kappa-type opioid receptor (Homo sapiens) (UniProt P41145)          0.0
2  O=C(Nc1nc(-c2ccccc2)cs1)c1ccccc1NS(=O)(=O)c1ccc(F)cc1  Kappa-type opioid receptor (Homo sapiens) (UniProt P41145)          1.0

What was the test verdict on "COc1ccc(S(=O)(=O)Nc2ccccc2C(=O)Nc2nc(-c3ccc(F)cc3)cs2)cc1OC" ? 0.0

Returns: the outcome recorded for "CCN(CC)S(=O)(=O)c1ccc(-c2nnc(SCC(=O)c3ccc(OC)cc3)o2)cc1" in this assay. 0.0

Record lookup: outcome of this test for "CN(C)/C=C/C(=O)c1cccc(C(F)(F)F)c1" ? 0.0

Any idea what this test logged for "O=C(c1ccc2c3n(nc2c1)-c1ccccc1CO3)N1CCOCC1" ? 0.0

How was "CCOc1ccccc1NC=C1C(=O)OC(C)(C)OC1=O" classified in this test? 0.0

Per the records of this test, what outcome belongs to "CCN(CC)CCNc1nc(C(F)(F)F)nc2c1nnn2Cc1ccccc1" ? 0.0

Identify the outcome logged in this assay for the molecule shown: CCc1ccccc1NC(=O)c1cccc(N2C(=O)C3C4CCC(C4)C3C2=O)c1 (stereo not given) 0.0

Per the records of this test, what outcome belongs to Cc1ccc2c(CC(=O)NCC3COc4ccccc4O3)coc2c1 (stereo not given) ? 0.0

Assay result, entry "COc1ccc(C(=O)CSc2nnc(-c3ccc(C)cc3)o2)cc1" — outcome? 0.0

Would you mind telling me which call this test gave "CCc1ccccc1OCC(=O)N(CC)CC(=O)NCc1ccc(F)cc1" ? 0.0

Check the results log: what was the call for "OCCNCc1ccc(OCc2ccc(Cl)cc2Cl)cc1" ? 0.0

What classification did "COc1ccc(CCN2C(=O)CSC2=Nc2ccc(C)cc2C)cc1OC" end up with in this test? 0.0

# fetch the recorded call for Oc1cccc(C(O)CNCc2ccc(OCc3ccc(Cl)cc3Cl)cc2)c1 (stereo not given) here 1.0
